- Target Entity: T1, UNK ZnF1-3 (human, UniProt Q9C0B0 31-174)
- T1 sequence: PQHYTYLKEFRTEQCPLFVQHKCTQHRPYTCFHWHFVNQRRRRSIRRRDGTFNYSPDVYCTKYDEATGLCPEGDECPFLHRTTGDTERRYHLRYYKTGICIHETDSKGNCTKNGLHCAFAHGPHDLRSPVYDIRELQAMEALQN
- Assay Explanation: nsRBNS (natural sequence RNA bind-n-seq); RBNS binding buffer (assumed for nsRBNS): 25 mM Tris pH 7.5, 150 mM KCl, 3 mM MgCl2, 0.01% Triton X-100, 500 ug/ml BSA, 20 U/ml SUPERase-In, 4 C; UNK is unkempt and MSI1 is Musashi-1; names of the RNAs are library labels; protein concentration not given here; high values mean tight binding
In all, about 24,000 sequences were measured (“enrichment r”: median about 0.99, highest 2% from about 3.7 on). What follows is part of a selection rich in the highest values, with near analogues and random picks from the rest.
Would you mind labelling by binding signal? At or over 0.8 enrichment R is label 1, under is label 0.

Binder	Discrete Label
chr3:148479741:148479742:-_ENSMUSG00000028184_ENSMUST00000106128|mus_mus|motif|central (ssRNA) RNA: GGGAGUUCUACAGUCCGACGAUCACAAUGCAGGCCUACAGAAAAACAAAACAAAACAAAAACAAAAACCGGUAGGGCCCGGUUUACAGACUCAGUUCACCAACUGCCGCAAGGAACAUGGCCGGGAGGGAGGGUCUCUUGUUUCAACAGAGGAUUGAGCAUCA	label 1
61074685_61077595_487_3pUTR_ENSG00000119541_ENST00000238497|human|control|control (ssRNA) RNA: GGGAGUUCUACAGUCCGACGAUCUCUUUUUUUCAGGAUCAUCAGAUUCUCCUUCCCCAUCACUGUCAUUCCCCUUCUCAUCUGCUGGACUCGGCUGUCCUUCUUUCACUGGCUUCUGUGCUUUUUUCUCUUUAUUUUUCAGGUCAACAGAGGAUUGAGCAUCA	label 0
52098632_52100650_1216_3pUTR_ENSG00000128872_ENST00000249700|human|control|control (ssRNA) RNA: GGGAGUUCUACAGUCCGACGAUCUACCUUCGGUCUGCUUCAACUCUCUUCUUACGAACCAGGUCAUUAUUCUUUGUGAUGGCAGCUGCCACCCUUGUUCGUGGCCCUUGCUUGGUAAACUGGUAUCCAAACUUGAGGAUCCUUCAACAGAGGAUUGAGCAUCA	label 0
chr7:75932113:75932114:+_ENSG00000106211_ENST00000248553|hu_hu|hu_hu_hu_mus_False|8_48 (ssRNA) RNA: GGGAGUUCUACAGUCCGACGAUCCUGCGACCACUCAUCGGGCAACCGGGGCACCCCGAAAGCUUGAUCGAAGAGGCGGCUGUGUGCGUACCAGUCGUCCCGGAAUGGUUCCCAGCUCGGGCUCCGCAGCGAGAAGGAGGGCACCAACAGAGGAUUGAGCAUCA	label 1
chr7:150915252:150915253:-_ENSG00000033050_ENST00000287844|hu_mus|FALSE|FALSE (ssRNA) RNA: GGGAGUUCUACAGUCCGACGAUCCUUCCCUGCUCCAUUGGGUCCUACCAGAGCCACUCGUGUGUCAAGAUCAAUACCAAAUUCUAGAUUAUUGUAGAUGCAAGGCCCGUCUUUCGUAUAUUUGAAGCUCACGUUCUGCACCAUCAACAGAGGAUUGAGCAUCA	label 1
139370288_139370408_1793_CDS_ENSG00000148396_ENST00000313050|human|control|control (ssRNA) RNA: GGGAGUUCUACAGUCCGACGAUCGGUUGAGGGCUGGGACACGCUGCCACGGUAAUUCUGGCUCACAGUGGUCUCGUCUGUUUCACCUCCUACGGGAGAAGAAUCGAUUUGCUUAAAAAAACUACCUGAAGCUUCAUCCUCGGGCAACAGAGGAUUGAGCAUCA	label 0
79156280_79159801_5654_CDS_ENSMUSG00000039414_ENSMUST00000097281|mouse|control|control (ssRNA) RNA: GGGAGUUCUACAGUCCGACGAUCACUGCUGGCAGACCACAGGAAGAGCGCAAUGGCUGUGAGUGUGCUCACUUCGUCAGGUGCGGGCAUACAGUCAUCUGGUUGAGAAUAUUCCAGGAUGCAGGCAAGGGUGCUCCGGAUUAGCAACAGAGGAUUGAGCAUCA	label 1
